Biological target: Protein phosphatase methylesterase 1 (Homo sapiens) (UniProt Q9Y570)
Sequence (Q9Y570 whole entry, looked up): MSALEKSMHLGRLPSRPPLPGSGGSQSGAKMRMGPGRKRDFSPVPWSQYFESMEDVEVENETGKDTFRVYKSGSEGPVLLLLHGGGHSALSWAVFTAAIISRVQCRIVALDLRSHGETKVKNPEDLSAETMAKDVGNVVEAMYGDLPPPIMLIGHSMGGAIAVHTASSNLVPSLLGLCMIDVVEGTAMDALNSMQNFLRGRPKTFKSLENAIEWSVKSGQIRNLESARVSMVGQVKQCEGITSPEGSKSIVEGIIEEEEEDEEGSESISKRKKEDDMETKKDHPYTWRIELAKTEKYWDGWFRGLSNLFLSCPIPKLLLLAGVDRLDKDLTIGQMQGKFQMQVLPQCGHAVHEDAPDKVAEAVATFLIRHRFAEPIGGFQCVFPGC
Assay: PME-1 inhibitor activity retest, confirmation, biochemical, fluorescence polarization, FP-Rh probe, triplicate (AID 2171);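 note: 0% = enzyme with DMSO and 100% = wells lacking PME-1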
Conditions: recombinant PME-1, FP-Rh probe fluorescence polarization; at 5.9 µM; active compounds read high
recorded_endpoint: inhibition (%)

molecule | recorded_endpoint | endpoint_value
O=C1CC(N(O)c2ccccc2)C(=O)N1c1cc(Cl)cc(Cl)c1 (stereo not given) | inhibition | 5.35
O=C(NNc1nc2c(F)cccc2s1)c1cc(=O)c2ccccc2o1 | inhibition | 58.6
CC1=NN(c2ccccc2)C(=O)/C1=C/c1c(O)n(-c2ccc(F)c(Cl)c2)[nH]c1=O | inhibition | 49
O=C(O)/C(CC(=O)c1ccc(Cl)cc1)=N/Nc1ccc([N+](=O)[O-])cc1[N+](=O)[O-] | inhibition | 42.7
O=c1ccc2cc3c([nH]c4ccc(Br)cc43)oc-2c1O | inhibition | -63.1
O=C(Nc1ccc(N2CCOCC2)cc1)Nc1ccc2nc(-c3ccco3)c(-c3ccco3)nc2c1 | inhibition | 39.5
Fc1cccc2sc(Nc3nc4cc5c(cc4s3)OCO5)nc12 | inhibition | 76.3
CCOc1ccc(NC(=S)Nc2ccc3nsnc3c2)cc1 | inhibition | 24.1
CC1=NN(c2ccccc2)C(=O)/C1=C/c1c(O)n(-c2ccc(F)cc2)[nH]c1=O | inhibition | 52.1
CCOC(=O)c1c2c3c(cccc3n(C)c1=O)C(=O)c1ccccc1-2 | inhibition | 21

----------
Some molecules, each annotated with its measured inhibition.
Target: Nuclear receptor coactivator 1 (Homo sapiens)
Test: SRC1 coactivator transcriptional activity inhibitors, confirmation, cell-based, luminescence, quadruplicate (AID 588820);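 note: 0% = DMSO wells and 100% = gossypol 36 µM treated wells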
Details: HEK293 GAL4-SRC1 luciferase reporter, at 3.6 µM, active compounds read high

molecule | inhibition [%]
CC(C)Nc1ncnc2ccc(Br)cc12 | 65.3
COc1ccc(/C=C2\N=C(C(C)(C)C)OC2=O)c(OC)c1 | 10
O=C(NC(=S)Nc1cccc(Cl)c1N1CCCCC1)c1ccco1 | -11.6
CCCCCC(=O)N1CCN(S(=O)(=O)c2ccc3c(c2)OCCO3)CC1 | -2.33
COc1ccccc1N1CCN(C(=O)C2CCN(S(=O)(=O)c3ccc4c(c3)CC(C)N4C(=O)C3CC3)CC2)CC1 (stereo unspecified) | -15.8
COc1ccc(Nc2ncnc3ccc(Br)cc23)c(OC)c1 | 68.4
c1ccc(-c2nnc(-c3ccccn3)nc2NC2CCCCC2)cc1 | 49.1
COc1cccc(/C=N/NC(=O)CNC(=O)C2COc3ccccc3O2)c1O (stereo unspecified) | 21.7
O=C(COC(=O)C1CCN(c2ccc(C(F)(F)F)cn2)CC1)NCc1cccc(Cl)c1 | 1.02
CCOC(=O)CC(=O)CSc1nccc(-c2cccnc2)n1 | 16.4
CCNc1nc(NCC)n2c(SCC(=O)Nc3ccccc3C(F)(F)F)nnc2n1 | -4.19

----------
Molecular target: (Lyso)-N-acylphosphatidylethanolamine lipase (Mus musculus) (UniProt Q8VD66)
Sequence (Q8VD66 whole entry, looked up): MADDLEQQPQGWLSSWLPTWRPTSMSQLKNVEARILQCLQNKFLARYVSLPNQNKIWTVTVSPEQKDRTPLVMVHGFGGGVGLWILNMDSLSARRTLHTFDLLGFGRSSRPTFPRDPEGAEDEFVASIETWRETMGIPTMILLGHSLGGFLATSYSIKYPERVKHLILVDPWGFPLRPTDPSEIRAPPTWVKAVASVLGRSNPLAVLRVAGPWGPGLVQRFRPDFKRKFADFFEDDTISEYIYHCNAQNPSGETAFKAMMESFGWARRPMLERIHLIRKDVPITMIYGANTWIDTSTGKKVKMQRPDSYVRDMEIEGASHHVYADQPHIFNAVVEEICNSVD
Experiment: ABHD4 inhibitors, retest, confirmation, biochemical, fluorescence polarization, mouse (AID 720658);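 note: 0% = wild-type ABHD4 with DMSO and 100% = catalytically dead S159A mutant with DMSO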
Conditions: purified mABHD4, FP-Rh probe fluorescence polarization; at 8.92 µM
Some of the results follow. The source made the active and inactive calls.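 Rule for the calls: active = mean inhibition across replicates above the hit cutoff set in the primary screen (cut at about 30% in these data); inactive = the rest.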
Outcomes: true (active), false (inactive)

molecule | group
Nc1ccc2nc3c(=O)[nH]c(=S)[nH]c3nc2c1 | true
CCCCCCSc1ccc(-c2nc3ccc(Cl)cn3c2NCc2ccccc2)cc1 | false
CC(C)c1ccc(NC(=S)NNc2ccc(Cl)c(C(=O)O)c2)cc1 | false
CCC(C)Cn1c(O)cc2nn(-c3nc4ccccc4s3)c(=O)c-2c1C (stereo unspecified) | true
Oc1ccc(/C=N/Nc2ccc(C(F)(F)F)cn2)cc1O | true
COc1ccc2nc(Nc3nc4ccc(NC(C)=O)cc4s3)sc2c1 | true

----------
Target: Nuclear receptor coactivator 3 (Homo sapiens) (UniProt Q9Y6Q9)
Sequence (Q9Y6Q9 whole entry, looked up): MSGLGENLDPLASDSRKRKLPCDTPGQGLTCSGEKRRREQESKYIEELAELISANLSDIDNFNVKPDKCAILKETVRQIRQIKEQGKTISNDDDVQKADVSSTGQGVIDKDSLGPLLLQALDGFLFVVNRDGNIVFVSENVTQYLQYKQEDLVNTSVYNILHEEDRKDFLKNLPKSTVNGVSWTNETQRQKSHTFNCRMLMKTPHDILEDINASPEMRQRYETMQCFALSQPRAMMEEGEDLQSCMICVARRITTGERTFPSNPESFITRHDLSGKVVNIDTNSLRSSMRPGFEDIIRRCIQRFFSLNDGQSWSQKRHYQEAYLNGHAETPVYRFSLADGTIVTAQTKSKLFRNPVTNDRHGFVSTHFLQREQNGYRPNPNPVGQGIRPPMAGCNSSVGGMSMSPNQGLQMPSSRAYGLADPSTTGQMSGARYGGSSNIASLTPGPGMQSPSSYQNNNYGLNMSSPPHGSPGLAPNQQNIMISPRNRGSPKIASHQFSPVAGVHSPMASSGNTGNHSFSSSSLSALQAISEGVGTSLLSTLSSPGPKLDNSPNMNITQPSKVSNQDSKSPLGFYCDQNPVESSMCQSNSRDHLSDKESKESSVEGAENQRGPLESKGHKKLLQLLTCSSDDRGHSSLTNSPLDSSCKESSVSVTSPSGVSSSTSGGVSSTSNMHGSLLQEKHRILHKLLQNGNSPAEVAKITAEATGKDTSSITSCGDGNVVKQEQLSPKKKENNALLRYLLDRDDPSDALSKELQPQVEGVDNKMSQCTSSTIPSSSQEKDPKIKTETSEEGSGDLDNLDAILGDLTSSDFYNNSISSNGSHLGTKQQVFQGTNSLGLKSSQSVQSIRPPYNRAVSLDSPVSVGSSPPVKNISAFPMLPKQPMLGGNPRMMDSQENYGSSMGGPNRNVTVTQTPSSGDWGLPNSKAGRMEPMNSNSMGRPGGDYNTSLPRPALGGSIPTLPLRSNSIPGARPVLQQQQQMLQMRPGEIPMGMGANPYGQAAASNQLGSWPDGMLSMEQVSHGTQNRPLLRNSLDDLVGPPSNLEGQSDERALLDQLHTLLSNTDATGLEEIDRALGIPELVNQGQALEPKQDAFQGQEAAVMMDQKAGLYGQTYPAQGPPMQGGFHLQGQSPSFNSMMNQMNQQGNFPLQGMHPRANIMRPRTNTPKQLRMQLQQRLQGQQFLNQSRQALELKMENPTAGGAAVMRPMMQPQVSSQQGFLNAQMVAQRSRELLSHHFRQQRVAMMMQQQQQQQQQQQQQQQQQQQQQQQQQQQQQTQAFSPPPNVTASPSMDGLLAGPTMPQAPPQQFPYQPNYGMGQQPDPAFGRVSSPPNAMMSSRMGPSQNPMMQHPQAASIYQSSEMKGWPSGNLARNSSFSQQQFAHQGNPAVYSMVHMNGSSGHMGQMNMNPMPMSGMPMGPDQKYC
Test: SRC3 coactivator transcriptional activity inhibitors, confirmation, cell-based, luminescence, quadruplicate (AID 588792);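 note: 0% = DMSO treated cells and 100% = gossypol at 36 µM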
Conditions: HEK293 GAL4-SRC3 luciferase reporter, at 3.6 µM, active compounds read high
recorded_endpoint: inhibition (%)

compound | unit_of_measure | endpoint_value
Cc1ccc(O)c(C(=O)c2cnc3c(c2)COc2ccccc2-3)c1 | % | -8.22
CCCN1C(=O)c2ccccc2NC1c1ccc(Cl)c(Cl)c1 (stereo not given) | % | 17.8
COc1cc(N(C)C)ccc1C=c1c2ccccc2n2c1cc(-c1ccccc1)[n+]2C | % | 57.7
S=C(Nc1ccccc1)Nc1ccc(OCc2ccc(Cl)cc2Cl)cc1 | % | 46.7
Cc1ccccc1C(=O)N1CCN(c2ccc(NC(=O)c3ccc4c(c3)OCO4)cc2)CC1 | % | 55.4

----------
Molecular target: Nuclear receptor subfamily 5 group A member 2 (Homo sapiens)
Assay: LRH-1 (NR5A2) inverse agonists, retest, confirmation, cell-based, luminescence (AID 651613);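 note: HEK293T cells co-transfected with LRH-1 and StAR promoter luciferase reporter; 0% = vehicle wells and 100% = parental cells lacking receptor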
Settings: cell-based LRH-1 luciferase reporter, inverse agonism; at 3.6 µM; active compounds read high

molecule | inhibition [%]
O=C(CN1C(=O)NC2(CCCCC2)C1=O)NCCc1c[nH]c2ccccc12 | 47.8
CCCc1nnc(SCC(=O)Nc2ccc(C(=O)OCC)cc2)o1 | 56.6
COc1cc(-c2noc(C)c2-c2ccc(N(C)C)nc2)cc(OC)c1OC | 53
CC(=O)OC[C@]12CC[C@H]3[C@@](C)(CC[C@H]4C(C)(C)CCC[C@]34C)[C@@H]1CC(C1=CC(=O)OC1O)O2 (stereo not given in full) | 110
CN1C=C/C(=C\c2cc[n+](C)c3ccccc23)c2ccccc21 | 108
CCCC(=O)NC(c1ccccc1Cl)c1ccc2cccnc2c1O (stereo not given) | 99.2
COc1cc(/C=C2/SC(=Nc3ccc(O)cc3)NC2=O)ccc1O | 48.5
Cc1cc(C(=O)COC(=O)C2=COCCO2)c(C)n1-c1ccccc1 | -86.4
O=C(CSc1nnc(CNC(=O)c2ccccc2F)o1)Nc1ccc2c(c1)OCCO2 | 56.9
CCCCCOc1ccc(NC(=O)CSc2cccc3cccnc23)cc1 | 42.7

----------
Test system: transactivating tegument protein VP16 (Human herpesvirus 1), Gal4-VP16 luciferase reporter
Assay: VP16 transactivation inhibitors, counter-screen for SRC3 inhibitor project, cell-based, luminescence, high throughput (AID 588794)
Conditions: mammalian cells, VP16-driven luciferase reporter luminescence; at 3.6 µM
Active and inactive are the calls of the source. Cut-off read from the data, not from the text of the source: active = inhibition above about 30%; inactive = the rest.
Outcomes: 1 (yes) = active, 0 (no) = inactive

compound | group
CCCCC[n+]1cccc2c3ccccc3ccc21 | 1 (yes)
N#CC(C#N)c1ccnc2ccccc12 | 1 (yes)
C=CCn1c(NCCc2ccccc2)nc2c1c(=O)n(C)c(=O)n2C | 0 (no)
CC1(C)Cc2c(ccc3ccccc23)C(=O)N1 | 1 (yes)
O=C1N=C(N2CCN(c3ccccc3)CC2)S/C1=C\c1cn[nH]c1-c1ccccc1 | 0 (no)
O=C(OC12CC3CC(CC(C3)C1)C2)c1ccc(NCc2cc(O)ccc2O)cc1 | 1 (yes)
CCCCCCn1c2c(c(=N)c3c1CCC3)CCC2 | 1 (yes)
Cc1cc2sc3ccc(C#CC4(O)CCCCC4)cc3c(=O)c2cc1C | 1 (yes)
Cc1cc(C(=O)COC(=O)c2cccnc2Cl)c(C)n1CC1CCCO1 (centres undefined) | 0 (no)
Cc1ccc(-n2c(-c3ccccc3)c[n+]3c2CCC3)cc1 | 1 (yes)
O=S(=O)(c1ccccc1)c1nc(Nc2cccc(O)c2)sc1Cl | 0 (no)
O=C(NNC(=S)NCc1ccccc1)c1ccc2c(c1)OCO2 | 0 (no)
CN(C)c1ccc(/C=C/c2nc3ccccc3s2)cc1 | 0 (no)
O=C(CCl)N1N=C(c2ccco2)CC1c1ccco1 (centres undefined) | 0 (no)
CCSc1nsc(NC(=O)Nc2cccc(F)c2)n1 | 0 (no)
CC(=NNC(=S)Nc1cccc(Cl)c1)c1ccccn1 | 1 (yes)
Cn1nccc1C(=O)NC1CCCc2c1cnn2-c1ccc(C(C)(C)C)cc1 (centres undefined) | 1 (yes)
O=C(c1ccccc1)N1CCN(Cc2c[nH]c3ccccc23)CC1 | 0 (no)
O=S(=O)(/C(=C\c1ccc(C(F)(F)F)cc1)c1nc2ccccc2[nH]1)c1ccccc1 | 0 (no)
COc1ccc(-n2cc(-c3ccc(C)cc3)[n+]3c2SCC3)cc1 | 1 (yes)
O=C(NCCCn1ccnc1)c1ccc(N2CCCCCC2)c([N+](=O)[O-])c1 | 0 (no)
CCC1C/C(=C\c2cccnc2)C(=O)/C(=C/c2cccnc2)C1 (centres undefined) | 1 (yes)
COc1ccc2c(c1OC)C(=O)N1c3ccccc3C(=O)N(c3ccccc3F)C21 (centres undefined) | 0 (no)
CN(C)CCCN1C(=O)c2cccc3c([N+](=O)[O-])ccc(c23)C1=O | 0 (no)

----------
Molecular target: Nuclear receptor subfamily 5 group A member 2 (Homo sapiens) (UniProt O00482)
Sequence (O00482 whole entry, looked up): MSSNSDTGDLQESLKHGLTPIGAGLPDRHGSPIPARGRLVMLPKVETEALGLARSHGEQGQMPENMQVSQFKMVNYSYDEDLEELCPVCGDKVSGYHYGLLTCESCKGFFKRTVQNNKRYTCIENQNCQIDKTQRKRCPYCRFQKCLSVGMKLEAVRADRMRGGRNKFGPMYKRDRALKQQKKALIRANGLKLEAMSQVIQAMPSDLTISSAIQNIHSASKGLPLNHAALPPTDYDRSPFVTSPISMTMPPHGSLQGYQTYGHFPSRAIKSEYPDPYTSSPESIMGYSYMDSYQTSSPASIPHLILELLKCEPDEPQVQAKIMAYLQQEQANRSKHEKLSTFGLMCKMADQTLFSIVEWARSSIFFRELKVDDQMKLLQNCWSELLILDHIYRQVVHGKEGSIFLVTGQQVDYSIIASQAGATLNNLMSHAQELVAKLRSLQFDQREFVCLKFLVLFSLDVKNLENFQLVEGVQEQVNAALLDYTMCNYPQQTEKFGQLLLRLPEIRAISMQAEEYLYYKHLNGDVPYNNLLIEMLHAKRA
Assay: LRH-1 (NR5A2) inverse agonists, retest, confirmation, cell-based, luminescence (AID 651613);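 note: HEK293T cells co-transfected with LRH-1 and StAR promoter luciferase reporter; 0% = vehicle wells and 100% = parental cells lacking receptor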
Details: cell-based LRH-1 luciferase reporter, inverse agonism; at 3.6 µM; active compounds read high
Calls of active or inactive are those of the source. Cut-off read from the data, not from the text of the source: active = inhibition above about 42%; inactive = the rest.
Form field: inhibition (one value per entry).
recorded_endpoint: inhibition

structure_smiles | endpoint_value
Cc1cc2c(=Cc3ccc(N(C)C)cc3)c3ccccc3n2[n+]1C | 108% (active)
O=C(CNc1cccc2ccccc12)N/N=C/c1ccc([N+](=O)[O-])o1 | 56.1% (active)
O=C(COC(=O)c1ccc(Br)o1)Nc1ccc2c(c1)OCCO2 | 59.4% (active)
CCOc1ccc(CCNC(=O)COC(=O)c2ccc(OC)c(OC)c2OC)cc1OCC | 53.8% (active)
O=C(NCc1cccnc1)c1cccn2c(=O)c3sccc3nc12 | 34.3% (inactive)
O=C(Cc1ccc(Cl)cc1Cl)Nc1ccncc1 | 76.1% (active)

From: PubChem BioAssay
